Each recorded value in this set is attributed to ChEMBL document CHEMBL1153723.

test system: HCT-116; assay: Cytotoxicity against human HCT116 cells assessed as survival index at 10 uM after 72 hrs by FMCA method; assay type: functional; settings: HCT-116, 72 h, read-out: Survival
Metric: viability at 10 µM (%)
Report only the number, with the unit % understood.

Known viability at 10 µM results, listed for orientation:
[
  {
    "Smiles Code": "C[C@H]1O[C@@H](O[C@H]2[C@@H](O)C[C@H](O[C@H]3[C@@H](O)C[C@H](O[C@H]4CC[C@@]5(C)[C@H](CC[C@@H]6[C@@H]5CC[C@]5(C)[C@@H](C7=CC(=O)OC7)CC[C@]65O)C4)O[C@@H]3C)O[C@@H]2C)C[C@H](O)[C@@H]1O",
    "Tgt": "HCT-116",
    "Unit Abbrev": "%",
    "viability at 10 µM": 4
  },
  {
    "Smiles Code": "C[C@@H]1O[C@@H](O[C@@H]2C=C3CC[C@@H]4[C@H](CC[C@]5(C)[C@@H](c6ccc(=O)oc6)CC[C@]45O)[C@@]3(C)CC2)[C@H](O)[C@H](O)[C@H]1O",
    "Tgt": "HCT-116",
    "Unit Abbrev": "%",
    "viability at 10 µM": 1
  }
]

Task item: Query: viability at 10 µM; subject: `CO[C@H]1C[C@H](O[C@H]2CC[C@]3(C=O)[C@H]4CC[C@]5(C)[C@@H](C6=CC(=O)OC6)CC[C@]5(O)[C@@H]4CC[C@]3(O)C2)O[C@H](C)[C@H]1O`
Reply: 4

Task item: Query: viability at 10 µM; subject: `C[C@]12CC[C@H](O)C[C@H]1CC[C@@H]1[C@@H]2[C@H](O)C[C@]2(C)[C@@H](C3=CC(=O)OC3)CC[C@]12O`
Reply: 26

----------
viability at 10 µM values, listed per item
system: HCT-116; assay: Cytotoxicity against human HCT116 cells assessed as survival index at 10 uM after 72 hrs by FMCA method; type: functional; settings: HCT-116, 72 h, read-out: Survival
Report only the number, with the unit % understood.

Known viability at 10 µM results, listed for orientation:
[
  {
    "Compound": "CO[C@H]1[C@H](O)[C@H](O[C@H]2CC[C@@]3(C)[C@H](CC[C@@H]4[C@@H]3CC[C@]3(C)[C@@H](C5=CC(=O)OC5)CC[C@]43O)C2)O[C@@H](C)[C@@H]1O",
    "Recorded Result": 3
  },
  {
    "Compound": "CO[C@H]1[C@H](O)[C@H](O[C@H]2CC[C@@]3(C=O)[C@H](CC[C@@H]4[C@@H]3CC[C@]3(C)[C@@H](C5=CC(=O)OC5)CC[C@]43O)C2)O[C@@H](C)[C@@H]1O [PERUVOSIDE]",
    "Recorded Result": 3
  }
]

With those in mind, consider the next compound.
Task item: Query: viability at 10 µM; subject: `C[C@@H]1O[C@@H](O[C@H]2C[C@@H](O)[C@]3(CO)[C@H]4[C@H](O)C[C@]5(C)[C@@H](C6=CC(=O)OC6)CC[C@]5(O)[C@@H]4CC[C@]3(O)C2)[C@H](O)[C@H](O)[C@H]1O`
Reply: 4
